Assay Method Text: Fluorometric PAI-1/uPA IC50 Plate Assay (1.5% BSA buffer): To determine the efficacy of various synthesized compounds as PAI-1 inhibitors, a fluorometric plate assay was carried out to measure the half maximal inhibitory concentration (IC50) of these compounds on recombinant active human PAI-1 in vitro. An IC50 is a measure of the effectiveness of a compound in inhibiting biological or biochemical function. Stated another way, IC50 represents the concentration of a drug that is required for 50% inhibition in vitro. The IC50 of various compounds was measured using a fluorometric plate assay. PAI-1 inhibitor compounds were dissolved in DMSO to a final concentration of (10-50 mM), depending upon solubility. Compounds were then diluted in physiologic buffer (40 mM HEPES, 100 mM NaCl, 0.05% Tween-20, pH7.4) containing 10% DMSO and a dilution series (from 0 to 1000 uM depending on solubility) was prepared. 80 μL of compound was added per well to a 96-well black, opaque microplate in duplicate. 10 μL of 20 nM Recombinant active human PAI-1 (Molecular Innovations) in physiologic buffer (40 mM HEPES, 100 mM NaCl, 0.05% Tween-20, 10% DMSO, pH 7.4), or […] physiologic buffer with 10% human plasma, was added and the mixture was agitated for 15 minutes at room temperature. 10 μL of 25 nM uPA (Rheotromb®) was added to each reaction well and the plate was agitated for an additional 30 minutes at room temperature. Tripeptide aminomethylcoumarin Gly-Gly-Arg-AMC (Calbiochem) fluorogenic substrate (100 μL of 100 μM) was then added and residual uPA activity was determined based upon cleavage of this substrate. The rate of AMC release by uPA (fluorescence) was measured at an excitation wavelength of 370 nm and an emission wavelength of 440 nm. Controls included PAI-1 and uPA in the absence of compound and uPA alone. Percent PAI-1 inhibition was calculated using the following formula: [(uPA alone-uPA/PAI-1+ compound)/(uPA alone-PAI-1/uPA)]*100%. The IC50 was calculated using Graphit (IC50 0-100%). It is in 1.5% BSA buffer.
Measured Metric: pIC50
Value format note: pIC50 is -log10 of concentration (mol/L); just state the number.

query: Which measured pIC50 value corresponds to [C-]#[N+]c1ccc(CNC(=O)C(=O)NN)cc1 ?
result: 3.05
